meta.source: patent US20240352445A1

molecular target: SARS-CoV-2 spike protein trimer, Alpha (B.1.1.7) variant (SARS-CoV-2, UniProt P0DTC2 16-1213); test: ELISA, purified IgG

{"columns": ["binder", "binding result"],
 "data": [
  ["SEQ ID NO 17 (antibody, V domains shown, As m4) VH: EVQLVESGGGLVQPGGSLRLSCTVSGFSLSTYAMSWVRQAPGKGLEWIGVIASNADTYYASWAKGRFTISRDNSKNTLYLQMNSLRAEDTAVYYCARHPGSAGYGYAVYYAMDPWGQGTLVTVSS VL: DIQMTQSPSSLSASVGDRVTITCQASQPIYYGINWYQQKPGKAPKLLIYGHTYRAWGVPSRFSGSGSGTDFTLTISSLQPEDFATYYCQQGYRVGLGFGGGTKVEIK", "binds"],
  ["SEQ ID NO 15 (antibody, V domains shown, As m4) VH: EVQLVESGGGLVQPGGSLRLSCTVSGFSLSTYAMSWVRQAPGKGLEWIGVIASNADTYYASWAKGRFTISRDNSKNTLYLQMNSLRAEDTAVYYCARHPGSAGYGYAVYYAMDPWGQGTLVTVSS VL: DIQMTQSPSSLSASVGDRVTITCQASQKIHYAINWYQQKPGKAPKLLIYGTSYLGGGVPSRFSGSGSGTDFTLTISSLQPEDFATYYCQQGYIVPNSFGGGTKVEIK", "binds"]
]}
